Experiment: Antagonist activity at CCR4 in human Treg cells assessed as inhibition of CCL22-mediated chemotaxis preincubated for 30 mins followed by CCL22 addition and measured after 60 mins in presence of 100% human serum by CellTiter-Glo assay
pIC50: −log10 of the molar value.
MEASURED_ENDPOINT: pIC50

| SMILES_RECORD | VALUE_OBSERVED |
| --- | --- |
| C[C@H](c1ccc(Cl)cc1Cl)n1nc(C#N)c2ncc(N3CC([C@H]4CCCN(CCO)C4)C3)nc21 | 7.48 |

====

Below, each entry is listed with its recorded IC50.
Experiment: Antagonist activity at CCR4 in human CCRF-CEM cells assessed as inhibition of CCL22-mediated chemotaxis preincubated for 30 mins followed by CCL22 addition and measured after 60 mins in presence of 100% human serum by CellTiter-Glo assay
MEASURED_ENDPOINT: IC50 (nM)

| SMILES_RECORD | VALUE_OBSERVED |
| --- | --- |
| Cc1nn([C@H](C)c2ccc(Cl)cc2Cl)c2nc(N3CC([C@H]4CCCN(CCC(N)=O)C4)C3)cnc12 | 247 |
| Cc1nn([C@H](C)c2ccc(Cl)cc2Cl)c2nc(N3CC([C@H]4CCCN(CCCO)C4)C3)cnc12 | 109 |
| Cc1nn([C@H](C)c2ccc(Cl)cc2Cl)c2nc(N3CC([C@H]4CCCN(CCS(N)(=O)=O)C4)C3)cnc12 | 717 |
| Cc1nn([C@H](C)c2ccc(Cl)cc2Cl)c2nc(N3CC([C@H]4CCCN(CCNC(=O)C(C)C)C4)C3)cnc12 | 59 |
| C[C@H](c1ccc(Cl)cc1Cl)n1nc(C#N)c2ncc(N3CC([C@H]4CCCN(CCC#N)C4)C3)nc21 | 523 |
| Cc1nn([C@H](C)c2ccc(Cl)cc2Cl)c2nc(N3CC([C@H]4CCCN(CCNS(=O)(=O)C(C)C)C4)C3)cnc12 | 115 |
| Cc1nn([C@H](C)c2ccc(Cl)cc2Cl)c2nc(N3CC([C@H]4CCCN(CCNS(C)(=O)=O)C4)C3)cnc12 | 136 |
| C[C@H](c1ccc(Cl)cc1Cl)n1nc(C#N)c2ncc(N3CC([C@H]4CCCN(CCO)C4)C3)nc21 | 50 |
| Cc1nn([C@H](C)c2ccc(Cl)cc2Cl)c2nc(N3CC([C@H]4CCCN(CCC(=O)O)C4)C3)cnc12 | 370 |
| COC(=O)NCCN1CCC[C@H](C2CN(c3cnc4c(C)nn([C@H](C)c5ccc(Cl)cc5Cl)c4n3)C2)C1 | 133 |
| C[C@H](c1ccc(Cl)cc1Cl)n1nc(C#N)c2ncc(N3CC([C@H]4CCCN(CCC(=O)O)C4)C3)nc21 | 409 |
| C[C@H](c1ccc(Cl)cc1Cl)n1nc(C#N)c2ncc(N3CC([C@H]4CCCN(CC(=O)O)C4)C3)nc21 | 775 |
| C[C@H](c1ccc(Cl)cc1Cl)n1nc(C(=O)N(C)C)c2ncc(N3CC([C@H]4CCCN(CCO)C4)C3)nc21 | 379 |
| Cc1nn([C@H](C)c2ccc(Cl)cc2Cl)c2nc(N3CC([C@H]4CCCN(CCCC(=O)O)C4)C3)cnc12 | 559 |
| Cc1nn([C@H](C)c2ccc(Cl)cc2Cl)c2nc(N3CC([C@H]4CCCN(CCO)C4)C3)cnc12 | 74 |
| C[C@H](c1ccc(Cl)cc1Cl)n1nc(C(N)=O)c2ncc(N3CC([C@H]4CCCN(CCO)C4)C3)nc21 | 36 |
| C[C@H](c1ccc(Cl)cc1Cl)n1nc(C#N)c2ncc(N3CC([C@H]4CCCN(CCC(F)(F)F)C4)C3)nc21 | 1500 |
| Cc1nn([C@H](C)c2ccc(Cl)cc2Cl)c2nc(N3CC([C@H]4CCCN(CCCS(C)(=O)=O)C4)C3)cnc12 | 259 |
| Cc1nn([C@H](C)c2ccc(Cl)cc2Cl)c2nc(N3CC([C@H]4CCCN(CCS(C)(=O)=O)C4)C3)cnc12 | 575 |
| CC(=O)NCCN1CCC[C@H](C2CN(c3cnc4c(C)nn([C@H](C)c5ccc(Cl)cc5Cl)c4n3)C2)C1 | 40 |
| CNC(=O)c1nn([C@H](C)c2ccc(Cl)cc2Cl)c2nc(N3CC([C@H]4CCCN(CCO)C4)C3)cnc12 | 446 |
| C[C@H](c1ccc(Cl)cc1Cl)n1nc(C#N)c2ncc(N3CC([C@H]4CCCN(Cc5cnc[nH]5)C4)C3)nc21 | 97 |
